Test: soluble on expression in E. coli; label from the status in PepcDB or PDB records

- sequenceChain: "KPTEPHQFAQQVLYDLDQQPRIIAQLSHQQPMLLYFWGTWCRYCQFTSAAVQQLANEKIPILTIALKSGDEQDISNNYLTQQKYTFPTINDPDGNIAKNWTIQATPTIIFIKDGKIVEYTTGLTSYWGLKSRLW"
  soluble on expression in E. coli: "not soluble"
- sequenceChain: "MESENIISAADKARILAEALPYIRRFSGSVAVIKYGGNAMTEPALKEGFARDVVLLKLVGIHPVIVHGGGPQINAMLEKVGKKGEFVQGMRVTDKEAMDIVEMVLGGHVNKEIVSMINTYGGHAVGVSGRDDHFIKAKKLLIDTPEQNGVDIGQVGTVESIDTGLVKGLIERGCIPVVAPVGVGEKGEAFNINADLVAGKLAEELNAEKLLMMTNIAGVMDKTGNLLTKLTPKRIDELIADGTLYGGMLPKIASAVEAAVNGVKATHIIDGRLPNALLLEIFTDAGIGSMILGGGEDA"
  soluble on expression in E. coli: "not soluble"
- sequenceChain: "MPMVRVATNLPNEKVPVDFEIRLTDLLARSMGKPRERIAVEIAAGARLVHGATHDPVTVISIKSIGAVSAEDNIRNTAAITEFCGKELGLPKDKVVITFHDLPPATVGFNGTTVAEANKK"
  soluble on expression in E. coli: "not soluble"

* * *

Test: soluble on expression in E. coli; label from the status in PepcDB or PDB records

- sequenceChain: "MIDFACKEFKVEDVIKCALNLTKADLNVMKSFLNEPDRWIDTDALSKSLKLDVSTVQRSVKKLHEKEILQRSQQNLDGGGYVYIYKIYSKNQIRNIIQKIVQSWADRLGQELKEWENGGE"
  soluble on expression in E. coli: "not soluble"
- sequenceChain: "KANFQWETGFTFSVNKNTIKKLYGEYETIVDALGNTIVKERDDVTNGWFIGHPVSAIWDYKVTGIWQKDEVKEAAKYSQRPGDPKVQNIYTDDDKVNADGSVTPVYNNKDKQFMGETTPPIHWSLRNSFTIFKDWVFSFNMYSYMGHKSLDTNYLNNDNNYSQITNCRNVYTKEYWTVDNPSNTYARLSAQGPTGISAPARVIDRSFIRLENISLAYNIPMKFLEKYKIQNAKIFTTVRNVATWSKEWEYGDPETGGLAPRTYSLGINLTF"
  soluble on expression in E. coli: "not soluble"
- sequenceChain: "MGSDKIHHHHHHMPTMIPAASRAMAVFEVFAREKRELSNSDMARLLSLPESSTSDLLHTLHSLGYLMRTTRTRRFYPTGRLSEIARQIAENDPLTTVAQEAIEQVSARTNESVFFGVLDGTAVKVMAVQASRLPLRYIIEVGYRAALHASALGKGLLGLLPPEEARETLAKSSLRAVTAHTVVDIDTLMAQVAKGRKRGWYEAHEEGSEGVHGLAVTGWLGGQAAGISLAGPAERMKKNHDAYLAALIEVRDALMSEE"
  soluble on expression in E. coli: "not soluble"

* * *

Test: soluble on expression in E. coli; label from the status in PepcDB or PDB records
measuredProperty: soluble on expression in E. coli

Recorded results for 5 sequences are shown here.
- sequenceChain: "MKTADELAKLRRASELITDSMLATIAAARAGSTKLEIIEQLRREETNRGLHFEYCLLTLGASHNRAGSPQAWAEGEILSIDSGGNYHGYIGDLCRMGVLGEPDAELEDLLAEVERIQQAAFAKVRAGVLGSEMIVAAEAELKASPSAAFTDFFCHGMGLITHEAPFLMTNHPVAYEGIDADKPLEAGNVISVETTMLHPKRGFIKLEDTLAITDKGYEMFGDRGRGLEHHHHHH"
  reported: "soluble"
- sequenceChain: "DKDVLEVKLDKKEYKAGETATALIQSPYADAELYFAVIKDKPIYQQITKVQGSAPQIQFRVTPEMLPNAAVEAVLVRQGKPINQVEVGSLDNLVKIGFTPFKVNLEDKYLKLQVKPAQASLEPGAEETIQLEVKDNQGNPTKGQLTVMVVNEAVLQLSGY"
  reported: "not soluble"
- sequenceChain: "ALTEEILNAQPNPICVKDRNLHYIAVNKAFSAIHDLAPDAMLGRSASDLVETELAEHFERSDRHVLETGTPYSEAEHIVRADGSDLWVVTRKYRVGLPDRHFVVTCMNDVT"
  reported: "not soluble"
- sequenceChain: "MGHHHHHHSHMNIQKDGKNVTSRREWIEKLVESKGKVDIEELASHFGVSSMTIRRDLMHLEEHNKLIRTHGGAVAPSSLIGETPYAQKQTEHLMEKQLIAKQASTLVPEGATILVDSGTTTLELIKLLKDRNDLTIVTNDITIAAELVNASPKCIVTGGELQLGVGALFGPQTEGMIRELHVDLFFLGAHAVDEAAGVTAPTLEKAAIKKRMMEAAQTTWLICDSSKFSKRAFANVCQLTKLEGIITDANFLTSFKHENYHDNMVIAQA"
  reported: "soluble"
- sequenceChain: "PSLSKEAALVHEALVARGLETPLRPPVHEMDNETRKSLIAGHMTEIMQLLNLDLADDSLMETPHRIAKMYVDEIFSGLDYANFPKITLIENKMKVDEMVTVRDITLTSTSEHHFVTIDGKATVAYIPKDSVIGLSKINRIVQFFAQRPQVQERLTQQILIALQTLLGTNNVAVSIDAVHYCVKARGIRDATSATTTTSLGGLFKSSQNTRHEFLRAVRHHN"
  reported: "soluble"

Now turn to the next sequence.
Returns the measured soluble on expression in E. coli for the input sequence. Input: MMHNPAHPGEVLKVAFLEEMGLTIQKLADHLHMTRASLSRVINGHASMSTELAIKLELAGFSKAKFWLDMQTNYNLWKTMQQAQPPISPLVSDSPQTSL
not soluble

* * *

Experiment: soluble on expression in E. coli; label from the status in PepcDB or PDB records
measuredProperty: soluble on expression in E. coli

- sequenceChain: "MGSEHAFQGPTSFHVIQTSSFTNSTWAQTQGSGWLDDLQIHGWDSDSGTAIFLKPWSKGNFSDKEVAELEEIFRVYIFGFAREVQDFAGDFQMKYPFEIQGIAGCELHSGGAIVSFLRGALGGLDFLSVKNASCVPSPEGGSRAQKFCALIIQYQGIMETVRILLYETCPRYLLGVLNAGKADLQRQVKPEAWLSSGPSPGPGRLQLVCHVSGFYPKPVWVMWMRGEQEQQGTQLGDILPNANWTWYLRATLDVADGEAAGLSCRVKHSSLEGQDIILYWGPGSGGGLNDIFEAQKIEWH"
  soluble on expression in E. coli: "soluble"
- sequenceChain: "MIDTNLLRVTVCDEGELEKSTTHFIGSRKIEPEQWITWASECKYLPESDAVALCATLIDRLSLEANVVPVSSPVTICGDIHGQFYDLLELFKTGGTVPNTKYVFMGDYVDRGHYSLETVTLLFCLLLKYPNQITLLRGNHESRRISNVYGFYDECQNKYGHGNVHKWFCKVFDVLPIGALIDESVLCVHGGLSPDIRTIDSLMLLDRAQEVPNKGPLCDIMWSDPDDDVEDWVISQRGAGFVFGAKVTEEFLMNNDLSLLCRSHQLVDEGFKYMFNEKLATVWSAPNYCYRCGNAAAVFEIDGNNRSTKYFNAVPDGSREKPDRVVAPYFL"
  soluble on expression in E. coli: "not soluble"
- sequenceChain: "MSIKIDLNKCVGCQKCINICPGSLIDKNNDGKAYIKYPKDCWGCTACLKECKFKAIKYFLGADIGGNGSYMYVSEKGEELEWHMINEDGKEKIITTSRKESNKYLEHHHHHH"
  soluble on expression in E. coli: "not soluble"
- sequenceChain: "MTATATEGAKPPFVSRSVLVTGGNRGIGLAIAQRLAADGHKVAVTHRGSGAPKGLFGVEVDVTDSDAVDRAFTAVEEHQGPVEVLVSNAGLSADAFLMRMTEEKFEKVINANLTGAFRVAQRASRSMQRNKFGRMIFIGSVSGLWGIGNQANYAASKAGVIGMARSIARELSKANVTANVVAPGYIDTDMTRALDERIQQGALQFIPAKRVGTPAEVAGVVSFLASEDASYISGAVIPVDGGMGMGH"
  soluble on expression in E. coli: "soluble"
- sequenceChain: "MGSDKIHHHHHHMPGPYNEMDVAISYIHNHLYEPLSLSHIASYVGYSSYHFSRLFKEKTGLSPLYYVSSLRLQKAKELLLNTNLTVRDIGLEIGQQSLGTFTTRFTKCVGMSPSHFRESMNQVNHSLHSLQMLSDWRTSLQSIHPFSTVTGTIDSEAPLEGFILIGLFSKPIPEGLPLYGNLLSSTGAFSFTGVTPGIYYLMATSISWSMQAKDILLPYTTLRGRIKEPIIVTSSPSILEYSLTLHTPRLDDPPILISLPLLMKNFLKARIAT"
  soluble on expression in E. coli: "not soluble"
- sequenceChain: "MGSDKIHHHHHHMSNAEWLNALETPFLLIDEFRFQRNIDRLYQRTKNLGSQVRPHLKTLRSIEAGRYLLKDSASPATVSTLAEAEAFAGAGYTNLLYAVGIAPHKLPRIANLIHKGVNLHILLDSVEQARAVTDYALANNVTFSVFIEIDCDGHRGGIPPESDALLELAQQIDGNGATLTGLLAHAGESYACRTDEAIRAAARAECAAINIAGRRVRALGIACPVLSVGATPTAHFAEDLTGITEVRAGVFTTFDLVMKNVGVCSLDDIALSVVSTVIGHNREKGWVFIDAGWMALSRDRGTASQAKDYGYGLVCDLHGSPYHDLCVTVTNQEHGIIALPTDSGFSVDNFPVGTRLRILPNHACATAAMHQHYQVLKSHRHEQETWQRITGW"
  soluble on expression in E. coli: "not soluble"

Returns the measured soluble on expression in E. coli for the input sequence. Input: MLWPFRWVWWKRVLTSQTRAPAKPNPLTVPPTCTWWSLRKLPNPTKLDDDLKNLLDPNEVRARMLKSFGTENFTQPQPQPQALKTTTPVFGTSSGNLGSVLSGGGYHAGLKHHQSTVTRSTGEWVDR
soluble

// repeat for MSLKISHIDLGEHPILLAPMEDVTDPAFRLMCKKFGADMVYTEFVSSDALIRAVSKTAQKLSISDEERPVAIQIYGKDTETMVEAAKIVEQAQPDILDINFGCPVKRVAGKGAGAGMLQNIPKMLEITRAVVDAVKIPVTVKTRLGWDANNKIIVDLAEQLQDCGIAALTIHGRTRAQMYTGEADWTLIGEVKNNQRMHIPIIGNGDVTTPQRCKECFDRYGVDAVMIGRASFGRPWIFKEVKHYLETGEELPPLSFEWCMEVLRQEVIDSVNLLDERRGILHVRRHLAASPLFKGIPNFKETRIAMLRAETKEELFRIFETIPEKVNSLLDEGHHHHHH and report
soluble

// repeat for MGSDKIHHHHHHMSKHVPKATLLTPSDVAFITDANRPVLTHTRNMAAEAGIEPHSHPRGQLLWAAKGLLRVRSENAVWVVPSTHAVWIPCNLPHQVNSETHAHTRNIYIDPSYDVRSLDTQVVMVTMTALMRELVLKLCESSHLMNSGQLHRLGLVAIDELETLDSLDAHLPAGSDPRLSRLIQKLIRHPTVNYTLTELAEMGGASVRTIERLFKAETGLTYRQWRQRFRLLNSLESLSQGESTTRVAHSLGYLSVSSFSAAFKMQFGCTPQDYPQHKPMKSKVNWFPDPVTGNN and report
not soluble

// repeat for MEDQLTIFIISDSLGETAKAIAKACLSQFPGHDDWHFQRFSYINSQERLEQVFEEASQKTVFMMFSLVDVALASYAQKRCESEHYAYVDLLTNVIQGISRISGIDPLGEPGILRRLDNDYFKRVESIEFAVKYDDGRDPRGILQADLVIIGISRTSKTPLSMFLADKNIKVINIPLVPEVPVPKELRMIDSRRIIGLTNSVDHLNQVRKVRLKSLGLSSTANYASLERILEETRYAEEVMKNLGCPIINVSDKAIEETATIILEILKTNGQVAKNLLEHHHHHH and report
not soluble

// repeat for MDSDRLSSVEQFPDRGNNHVEEGSAIDYQRVPPLSGTHYASTVSAGFYEATPLLGSLVHTLEHGAVIVYYDPDEISPEARQSLREFSSVHTGTWRSVVAVPNPNDDPRATYVVTAWQHELTIDSYDAETVHAFLSEYLGRGPENPVRLEHHHHHH and report
not soluble
